Listed below are compounds with pKi for the protein given by its sequence, each taken from published literature.
Target chain: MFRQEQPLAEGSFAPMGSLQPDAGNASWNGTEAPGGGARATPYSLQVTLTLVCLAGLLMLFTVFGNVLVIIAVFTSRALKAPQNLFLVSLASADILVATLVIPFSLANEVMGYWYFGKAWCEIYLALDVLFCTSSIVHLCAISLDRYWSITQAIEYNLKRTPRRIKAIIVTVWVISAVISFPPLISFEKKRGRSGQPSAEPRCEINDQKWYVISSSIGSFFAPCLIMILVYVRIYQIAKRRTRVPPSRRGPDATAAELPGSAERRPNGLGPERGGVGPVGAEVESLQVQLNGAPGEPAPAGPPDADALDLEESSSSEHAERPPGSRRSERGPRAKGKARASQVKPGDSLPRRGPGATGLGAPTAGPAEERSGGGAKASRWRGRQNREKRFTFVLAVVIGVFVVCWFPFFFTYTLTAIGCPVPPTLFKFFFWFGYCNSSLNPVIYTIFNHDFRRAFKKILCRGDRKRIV
pKi: −log10 of the molar value.
metric name: pKi

Reference set (3 entries):
INSERT INTO results (entry_smiles, test_target, measurement) VALUES
  ('Cc1ccc(N(CC2=NCCN2)C2CCCCC2)cc1', 'the protein given by its sequence', 7.15),
  ('CN([C@@H]1CCN2CCc3c(oc4ccccc34)[C@@H]2C1)S(=O)(=O)CCO', 'the protein given by its sequence', 9.11),
  ('CCN(CC1=NCCN1)c1ccc(C)cc1', 'the protein given by its sequence', 7.85);

A = Cc1ccc(NCC2=NCCN2)cc1
B = NC(=O)c1cccnc1N1CCNCC1
Input: For the pair A and B , which entry has the numerically smaller recorded pKi? Response format: the label of the selected entry.
Output: B
